- experimental.target: human gastrin (CCK2) receptors (Homo sapiens, UniProt P32239)
- Construct: amplified by PCR (polymerase chain reaction) from the start codon to the stop codon; expressed in transfected cells
- Sequence (P32239 whole entry): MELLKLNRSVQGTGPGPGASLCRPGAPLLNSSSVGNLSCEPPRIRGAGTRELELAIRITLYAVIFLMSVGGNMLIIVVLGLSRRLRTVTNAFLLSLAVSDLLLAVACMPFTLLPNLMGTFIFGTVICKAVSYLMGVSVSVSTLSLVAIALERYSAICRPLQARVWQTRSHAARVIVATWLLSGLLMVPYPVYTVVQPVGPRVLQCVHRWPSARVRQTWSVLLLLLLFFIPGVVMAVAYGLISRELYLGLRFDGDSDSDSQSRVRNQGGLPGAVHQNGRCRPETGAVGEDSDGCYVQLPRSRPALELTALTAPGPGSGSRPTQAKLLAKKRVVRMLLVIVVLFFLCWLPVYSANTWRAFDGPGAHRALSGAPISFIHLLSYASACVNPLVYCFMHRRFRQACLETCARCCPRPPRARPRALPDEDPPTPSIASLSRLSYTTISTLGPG
- assay.comment: Displacement of [125I]-BH-CCK-8S from human CCK2 receptors cloned into NIH3T3 cells (membranes)
- Type: binding
- condition: hCCK2 receptor, NIH3T3 clone 7 membranes, [125I]-BH-CCK-8S 200 pM, 150 min at 21° C.; ± s.e. mean; read-out: CCK2 (pKI) (converted)
assay.readout: Ki (nM)

Study these solved cases before continuing.
O=C(O)Cc1cccc(NC(=O)CN2NC(C3CCCCC3)c3ccccc3N(CC(=O)C3CCCCC3)C2=O)c1 (single isomer, unassigned; (+)) [Example 13] : 3.98
Cc1cccc(NC(=O)CN2NC(C3CCCCC3)c3ccccc3N(CC(=O)C(C)(C)C)C2=O)c1 (racemic) [Example 3] : 44.7
O=C(O)Cc1cccc(NC(=O)CN2NC(C3CCCCC3)c3ccccc3N(CC(=O)C3CCCCC3)C2=O)c1 (racemic) [Example 10] : 0.363
O=C(CN1NC(C2CCCCC2)c2ccccc2N(CC(=O)C2CCCC2)C1=O)Nc1cccc(C(=O)O)c1 (single isomer, unassigned; (-)) [Example 12] : 1.58

a. O=C(CN1NC(C2CCCCC2)c2ccccc2N(CC(=O)C2CCCC2)C1=O)Nc1cccc(C(=O)O)c1 (single isomer, unassigned; (+)) [Example 11]
b. O=C(O)Cc1cccc(NC(=O)CN2NC(C3CCCCC3)c3ccccc3N(CC(=O)C3CCCC3)C2=O)c1 (racemic) [Example 5]
Which record shows the lower Ki: the first, a , or the second, b ? Give the label under which the chosen entry appears.
a
